Test system: FBXW7
Test: 3' UTR reporter interaction score (median-centred robust z-score of log2 firefly/Renilla activity); higher = less repression of the 3' UTR reporter
Settings: HEK293T; 48 h
# cutoff 0.3 applies to 3' UTR reporter interaction score; >= gives 1, < gives -1

For orientation, consider the following solved cases.
chain.sequence: GAGGUUGUCCGUGGUGAGUUCG
answer.label: -1

chain.sequence: AUGGAGAUAGAUAUAGAAAU
answer.label: -1

chain.sequence: UUGGUCCCCUUCAACCAGCUA
answer.label: 1

Q: Is 3' UTR reporter interaction score for UGUAAACAUCCUCGACUGGAAG at or above 0.3?
Ans: 1

Q: Is 3' UTR reporter interaction score for UUGUGUCAAUAUGCGAUGAUGU at or above 0.3?
Ans: -1

Q: Is 3' UTR reporter interaction score for GGAGAAAUUAUCCUUGGUGUGU at or above 0.3?
Ans: 1
